Measured values drawn from PubChem BioAssay AID841 for this set.

experiment: blockers of measles virus-induced cell death – single point, MLSMR library, absorbance, measles RdRp inhibitor project, primary screen (AID 841); settings: Measles virus-infected cells, CPE protection, at 4 µM
Hit rate of the full screen: of about 140,000 compounds, about 2,100 (1.5%) were called active. No stated cut-off is given here; in the data, active means protection mostly above about 24% (no sharp cut-off); inactive means mostly below about 26%. This excerpt belongs to a sample that is enriched for actives.
Labels: yes = active, no = inactive

>>> assigned_class("O=C1CC(c2cccc(F)c2)C2=C(CCCC2=O)N1 (stereo not drawn)")
"no"
>>> assigned_class("CCc1cccc(CC)c1NC(=O)COc1ccccc1C(=O)c1cc(C#N)c(=O)n(C2CCCCC2)c1")
"no"
>>> assigned_class("COc1ccc(CCNC(=O)C2CCN(c3nn4c(=O)cc(C)nc4s3)CC2)cc1OC")
"no"
>>> assigned_class("CC(=O)c1ccc(N2CCN(C(=O)c3ccc4nc[nH]c4c3)CC2)cc1")
"no"
>>> assigned_class("Cc1ccc(-c2nc3ccccc3[nH]2)cc1N")
"no"
>>> assigned_class("CCCCCCOC(=O)NCC(O)c1ccccc1 (stereo not drawn)")
"yes"
>>> assigned_class("COc1ccc(OC)c(C2C3=C(N=c4s/c(=C\\c5cccc(O)c5)c(=O)n42)c2ccccc2CC3)c1 (stereo not drawn)")
"no"
>>> assigned_class("COc1ccc(CNC(=O)CN(Cc2ccc(Cl)cc2)S(C)(=O)=O)cc1")
"no"
>>> assigned_class("Cc1cc(=O)n2nc(N3CCCC(C(=O)NCCC4=CCCCC4)C3)sc2n1 (stereo not drawn)")
"yes"
>>> assigned_class("COc1ccc2c(c1)cc1n2CCN=C1NN")
"yes"
>>> assigned_class("CCCCCCCCC(=O)NCCOc1ccccc1")
"no"
>>> assigned_class("CCCCCOC(=O)NCCOC(=O)Nc1ccc(C(=O)OCC)cc1")
"no"
>>> assigned_class("O=C(N/N=C/c1ccc2c(c1)OCO2)c1ccc(Cn2cc([N+](=O)[O-])cn2)o1")
"no"
>>> assigned_class("O=C1CCCC2=C1C(c1ccccc1)n1c(s/c(=C/c3cccc(F)c3)c1=O)=N2 (stereo not drawn)")
"yes"
>>> assigned_class("N#CCSc1nc2c(c(=O)n1Cc1ccccc1)C1(CCCC1)Cc1ccccc1-2")
"no"
>>> assigned_class("CCc1cccc(NC(=O)CCC(=O)O)c1")
"no"
>>> assigned_class("Cc1ccc(N=C2NC(=O)c3cccc([N+](=O)[O-])c32)cc1")
"no"
>>> assigned_class("O=C(N/N=C\\c1ccc(Br)cc1)c1ccc(Cn2cccn2)o1")
"no"
>>> assigned_class("CCC1S/C(=N/N=C/c2ccco2)NC1=O (stereo not drawn)")
"no"
>>> assigned_class("COc1ccc(Br)cc1C(=O)NC(=S)Nc1cc(-c2nc3ccccc3[nH]2)ccc1C")
"no"
>>> assigned_class("CC(=O)N1C(C)c2ccccc2C(C)(C)CC12CCCCC2 (stereo not drawn)")
"no"
>>> assigned_class("Cc1cccc(-n2c(SCC(N)=O)nc3c(c2=O)C2(CCCCC2)Cc2ccccc2-3)c1")
"yes"
>>> assigned_class("Cc1ccc(-c2nc3ccccc3[nH]2)cc1NC(=O)c1sc2ccccc2c1Cl")
"yes"
